Experiment: Intra-alveolar bone and intra-rib drug concentration, canine periodontitis model (Example 1)
Details: female, beagle, dog, alveolar bone, other: alveolar mucosa injection, 0.5 μg/site
outcome-measure: concentration at 13 weeks after final administration (ng/g)
Give bare numbers, in ng/g.

The reported concentration at 13 weeks after final administration of the compound O.O=P([O-])([O-])C(NC1CCCCCC1)P(=O)(O)O.[Na+].[Na+] [incadronate, monohydrate] was 58

###

Experiment: Intra-alveolar bone and intra-rib drug concentration, canine periodontitis model (Example 1)
Conditions: female, beagle, dog, rib (epiphyseal region), other: alveolar mucosa injection, 5 μg/site
outcome-measure: concentration at 13 weeks after final administration (ng/g)
Answers are plain numbers, in ng/g.

The reported concentration at 13 weeks after final administration of the compound O.O=P([O-])([O-])C(NC1CCCCCC1)P(=O)(O)O.[Na+].[Na+] [incadronate, monohydrate] was 33

###

Experiment: Intra-alveolar bone drug concentration, high dose topical study (Comparative Example 1)
Assay type: in vivo
Details: beagle, dog, 50 μg/site group (first value), read-out: Intra-alveolar bone concentration of incadronate
outcome-measure: concentration at 8 weeks after final administration

The reported concentration at 8 weeks after final administration of the compound O.O=P([O-])([O-])C(NC1CCCCCC1)P(=O)(O)O.[Na+].[Na+] [incadronate, monohydrate] was 5670 ng/g

###

Assay: Intra-alveolar bone and intra-rib drug concentration, canine periodontitis model (Example 1)
Details: female, beagle, dog, alveolar bone, other: alveolar mucosa injection, 5 μg/site
From the text: A total of 30 animals of female beagle dogs (1 to 2 years, body weight at the time of grouping 7.9 to 13.7 kg) were fed with a soft diet prepared by impregnating Gains Packen (AGF) with water from the previous day of ligation and used in this study. […]
outcome-measure: concentration at 13 weeks after final administration (ng/g)
Give bare numbers, in ng/g.

The reported concentration at 13 weeks after final administration of the compound O.O=P([O-])([O-])C(NC1CCCCCC1)P(=O)(O)O.[Na+].[Na+] [incadronate, monohydrate] was 356

###

Experiment: Alveolar bone drug concentration after oral administration in canine periodontitis model
Type: in vivo
Settings: dog, oral 1.0 mg/kg, at completion of 26 weeks administration
outcome-measure: concentration at 26 weeks

The reported concentration at 26 weeks of the compound O.O=P([O-])([O-])C(NC1CCCCCC1)P(=O)(O)O.[Na+].[Na+] [incadronate, monohydrate] was ~4000 ng/g
